test: Toxicity liver stage against HepG2, at 10uM; format: cell-based; design: test concentration 10 uM, cell line HepG2-A16-CD81EGFP; details: human, HepG2-A16-CD81EGFP cells; read-out: INHIBITION

{"molecule": "Cc1ncsc1CN1CC[C@H]2C(=O)N(c3ccccc3)CCO[C@H]2C1", "reading-unit": "%", "cytotoxicity at 10 µM": 1.26}
{"molecule": "O=C(NCC1CC[C@@]2(CNCCOC2)O1)c1cnccn1 (some centres not stated)", "reading-unit": "%", "cytotoxicity at 10 µM": 9.44}
{"molecule": "CCc1cnc(N2CCC3(CCN(Cc4cccc(C)c4)C3=O)C2)nc1 (configuration not stated)", "reading-unit": "%", "cytotoxicity at 10 µM": -0.891}
{"molecule": "COc1ccc(C)c(NC(=O)NCc2ncnn2C)c1", "reading-unit": "%", "cytotoxicity at 10 µM": -4.27}
{"molecule": "Cc1cccc2[nH]c(-c3cn(C4CCNCC4)nn3)nc12", "reading-unit": "%", "cytotoxicity at 10 µM": -6.47}
{"molecule": "O=S1(=O)CCC(CNc2cc(-c3ccccc3)nc3ccnn23)C1 (configuration not stated)", "reading-unit": "%", "cytotoxicity at 10 µM": 61.2}
{"molecule": "COc1c(C2CCCN2C(=O)c2cnc(C)cn2)c(C)nn1C (configuration not stated)", "reading-unit": "%", "cytotoxicity at 10 µM": 2.58}
{"molecule": "CC(NC(=O)c1ccc(Cl)cc1)c1nnc(SCC(=O)O)n1C (configuration not stated)", "reading-unit": "%", "cytotoxicity at 10 µM": -9.35}
{"molecule": "CC(C)n1ccc2c(NC(=O)c3n[nH]c4c3CCC4)cccc21", "reading-unit": "%", "cytotoxicity at 10 µM": 7.64}
{"molecule": "CNc1cc(C)nc(C2COCCN2Cc2csc(C)n2)n1 (configuration not stated)", "reading-unit": "%", "cytotoxicity at 10 µM": 1.45}
{"molecule": "CC1(C)CN=C(N2CCN(CC3CCCO3)CC2)S1 (configuration not stated)", "reading-unit": "%", "cytotoxicity at 10 µM": -8.41}
{"molecule": "CCn1ccnc1CN1CCN(CCc2ccccn2)CC1C (configuration not stated)", "reading-unit": "%", "cytotoxicity at 10 µM": -8.74}
{"molecule": "COc1ccc(CC(=O)N2CC[C@H](CO)[C@H](O)C2)c(OC)c1", "reading-unit": "%", "cytotoxicity at 10 µM": -0.392}
{"molecule": "Cc1cc(C)n(CC2CN(CC3CCCC3)CCO2)n1 (configuration not stated)", "reading-unit": "%", "cytotoxicity at 10 µM": -16.4}
{"molecule": "Cc1nc(C)n(CC2CCCN2c2ccnc(-c3ccccc3)n2)n1 (configuration not stated)", "reading-unit": "%", "cytotoxicity at 10 µM": 9.69}
{"molecule": "Cc1nc(C)c(S(=O)(=O)NC(=O)c2cccs2)s1", "reading-unit": "%", "cytotoxicity at 10 µM": -0.837}
{"molecule": "CC(=O)N(CCc1ccccc1)CC(=O)NC1(C#N)CC1", "reading-unit": "%", "cytotoxicity at 10 µM": 1.09}
{"molecule": "CCS(=O)(=O)N1CCc2ccc(NC(=O)Nc3ccccc3C)cc21", "reading-unit": "%", "cytotoxicity at 10 µM": 13.1}
{"molecule": "CCN(CC)S(=O)(=O)N1CCCC(c2ccc(C(=O)O)cc2)C1 (configuration not stated)", "reading-unit": "%", "cytotoxicity at 10 µM": -7.27}
{"molecule": "CCc1ncc(CN2CCC(O)(c3ccccc3F)CC2)cn1", "reading-unit": "%", "cytotoxicity at 10 µM": -4.68}
{"molecule": "CC(C)c1cc(C(=O)NCC2CCCN(c3ncccn3)C2)n(C)n1 (configuration not stated)", "reading-unit": "%", "cytotoxicity at 10 µM": 17.2}
{"molecule": "COCCN(Cc1ccco1)Cc1nc(-c2ccsc2)no1", "reading-unit": "%", "cytotoxicity at 10 µM": 1.02}
{"molecule": "CCN(CC1CCCN(CCc2cccc(OC)c2)C1)C(=O)CO (configuration not stated)", "reading-unit": "%", "cytotoxicity at 10 µM": 9.34}
{"molecule": "CCN(CCCNc1ncnc2cc(F)c(F)cc12)S(C)(=O)=O", "reading-unit": "%", "cytotoxicity at 10 µM": 37.7}
{"molecule": "COC(C)(C)c1noc(C2(C#N)CCCC2)n1", "reading-unit": "%", "cytotoxicity at 10 µM": -5.11}
{"molecule": "Cc1c(C(C)NCC2CCCC2)cnn1-c1ccc(F)cc1F (configuration not stated)", "reading-unit": "%", "cytotoxicity at 10 µM": 9}
{"molecule": "Cn1ccnc1C(O)c1ccccc1N1CCN(CC2CCCC2)CC1 (configuration not stated)", "reading-unit": "%", "cytotoxicity at 10 µM": 0.135}
{"molecule": "O=C(C1CC1)N1CC2(CCNCC2)C1", "reading-unit": "%", "cytotoxicity at 10 µM": -0.832}
{"molecule": "CN1CCN(C[C@@H]2CN(C(=O)c3ccccc3C#N)C[C@@H]2CO)CC1", "reading-unit": "%", "cytotoxicity at 10 µM": -24.7}
{"molecule": "COc1ccc(C[C@H]2CN(c3nnc(C)s3)CC[C@H]2OC)cc1", "reading-unit": "%", "cytotoxicity at 10 µM": 8.04}
{"molecule": "Cc1nnc([C@@H]2CC[C@@H]3[C@@H](CCN3Cc3ccccn3)O2)o1", "reading-unit": "%", "cytotoxicity at 10 µM": 11.3}
{"molecule": "CC(=O)N1CCCC(C(=O)NCCc2csc(-c3ccncc3)n2)C1 (configuration not stated)", "reading-unit": "%", "cytotoxicity at 10 µM": 5.12}
{"molecule": "Cn1cc(C(=O)N2CC[C@H](N3CCOCC3)[C@H](CCCO)C2)cn1", "reading-unit": "%", "cytotoxicity at 10 µM": -158}
{"molecule": "CN(C)c1ccccc1C(=O)N1C[C@@H](CN2CCOCC2)[C@@H](CO)C1", "reading-unit": "%", "cytotoxicity at 10 µM": -4.09}
{"molecule": "Cc1ccc(-c2nnc(C3CCCN3S(=O)(=O)c3cnn(C)c3C)o2)s1 (configuration not stated)", "reading-unit": "%", "cytotoxicity at 10 µM": 5.35}
{"molecule": "O=C(Nc1cccc(CNCc2csc(Br)c2)c1)C1CC1", "reading-unit": "%", "cytotoxicity at 10 µM": 7.97}
{"molecule": "Cc1nn(-c2ncnc3[nH]cnc23)c2c1C(CC(C)C)CC(=O)N2 (configuration not stated)", "reading-unit": "%", "cytotoxicity at 10 µM": 11.2}
{"molecule": "CCC(C)(CC(=O)OC)NCc1noc(C)n1 (configuration not stated)", "reading-unit": "%", "cytotoxicity at 10 µM": -4.39}
{"molecule": "Cc1csc(N2CCN(CC(=O)NCc3ccccn3)CC2C)n1 (configuration not stated)", "reading-unit": "%", "cytotoxicity at 10 µM": -4.04}
{"molecule": "COCc1nc(N(C)C)ncc1C(=O)Nc1cc(C)cc(C)c1", "reading-unit": "%", "cytotoxicity at 10 µM": 6.89}
{"molecule": "Cc1cnn(CC2CCCCN2C(=O)c2ccc(N(C)C)nc2)c1 (configuration not stated)", "reading-unit": "%", "cytotoxicity at 10 µM": -13.2}
{"molecule": "O=c1c2ccccc2nnn1CN(CC1CCOC1)C1CC1 (configuration not stated)", "reading-unit": "%", "cytotoxicity at 10 µM": -0.543}
{"molecule": "Cc1cc(CN2CCN(c3ccnc(-c4ccccc4)n3)CC2)no1", "reading-unit": "%", "cytotoxicity at 10 µM": -8.92}
{"molecule": "N#Cc1ccc(S(=O)(=O)N2CC(CC(=O)O)c3ccccc32)cc1 (configuration not stated)", "reading-unit": "%", "cytotoxicity at 10 µM": 0.513}
{"molecule": "Cc1cnn(CCNCC(=O)NC(C)c2ccc3c(c2)OCCO3)c1 (configuration not stated)", "reading-unit": "%", "cytotoxicity at 10 µM": -1.58}
{"molecule": "CC1c2ncc(CNC(=O)C3CC3)n2CCN1Cc1cccnc1 (configuration not stated)", "reading-unit": "%", "cytotoxicity at 10 µM": -3.76}
{"molecule": "Cc1nccc(C2CCCN(S(=O)(=O)N3CCOCC3)C2)n1 (configuration not stated)", "reading-unit": "%", "cytotoxicity at 10 µM": 6.08}
